Taken from patent US20200131274A1.

Recorded EC50 values for a group of binders are listed next.
- test-target: T1, cynomolgus PSMA, full-length, on CHO cells (cynomolgus, UniProt A0A2K5VNZ0 1-750)
- T1 construct: whole, on cells; also called cynoPSMA; cyno PSMA
- experiment-description: FMAT direct cell binding, CHO cyno PSMA cells

| binder | EC50 |
| --- | --- |
| single VH domain antibody 2.14 (VHH, Human single VH domain antibody (Humabody); C-terminal His tag, residues not tied) VHH: EVQLVESGGGVVQPGRSLRLSCAASGFSFSGYGVHWVRQAPGKGLEWVAYISYDASNKYYADNVKGRFTISRDNSKNTLYLQMNSLRAEDTAVYYCAKDPAWGLRLGESSSYDFDIWGQGTMVTVSS | 0.427 nM |
| single VH domain antibody 1.11 (VHH, Human single VH domain antibody (Humabody)) VHH: EVQLLESGGGLVQPGGSLRLSCAASGFSFSSYALSWVRQAPGKGLEWVSSIGENNDTTDYADNVKGRFTISRDNSKNTLYLQMNSLRVEDTAVYYCVKDGVHWGQGTLVTVSS | 0.217 nM |
| single VH domain antibody 2.22 (VHH, Human single VH domain antibody (Humabody); C-terminal His tag, residues not tied) VHH: EVQLVESGGGVVQPGRSLRLSCAASGFSFSGYGTHWVRQAPGKGLEWVAYISYDGSNKYYAAPVKGRFTISRDNSKNTLYLQMNSLRAEDTAVYYCAKDAAWGLRLGESSSYDFDIWGQGTMVTVSS | 0.613 nM |
| single VH domain antibody 1.10 (VHH, Human single VH domain antibody (Humabody)) VHH: EVQLLESGGGLVQPGGSLRLSCAASGFSFSSYALSWVRQAPGKGLEWVSSIGENNATTDYADFVKGRFTISRDNSKNTLYLQMNSLRVEDTAVYYCVKDGVHWGQGTLVTVSS | 0.152 nM |
| single VH domain antibody 2.1 (VHH, Human single VH domain antibody (Humabody); tested with a C-terminal His tag; 71-95; also called VH 2.1; VH2.1) VHH: EVQLVESGGGVVQPGRSLRLSCAASGFSFSGYGMHWVRQAPGKGLEWVAYISYDGSNKYYADSVKGRFTISRDNSKNTLYLQMNSLRAEDTAVYYCAKDPAWGLRLGESSSYDFDIWGQGTMVTVSS | 0.367 nM |
| single VH domain antibody 1.13 (VHH, Human single VH domain antibody (Humabody)) VHH: EVQLLESGGGLVQPGGSLRLSCAASGFSFSSYALSWVRQAPGKGLEWVSSIGENNHTTDYAADVKGRFTISRDNSKNTLYLQMNSLRVEDTAVYYCVKDGVHWGQGTLVTVSS | 0.115 nM |
| single VH domain antibody 1.14 (VHH, Human single VH domain antibody (Humabody)) VHH: EVQLLESGGGLVQPGGSLRLSCAASGFSFSSYALSWVRQAPGKGLEWVSSIGENNATTDYADVVKGRFTISRDNSKNTLYLQMNSLRVEDTAVYYCVKDGVHWGQGTLVTVSS | 0.145 nM |
| single VH domain antibody 1.16 (VHH, Human single VH domain antibody (Humabody)) VHH: EVQLLESGGGLVQPGGSLRLSCAASGFSFSSYALSWVRQAPGKGLEWVSSIGENNHTTDYADTVKGRFTISRDNSKNTLYLQMNSLRVEDTAVYYCVKDGVHWGQGTLVTVSS | 0.146 nM |
